# key: entry, value: processed/unprocessed PreF trimer binding ratio
target: T1, Processed stabilized hMPV PreF trimer (115BV) (human metapneumovirus, strain B2); experiment: BLI, ratio to unprocessed PreF trimer
T1 construct: also called Processed hMPV PreF trimer; processed PreF

BINDER | RESULT
M7D5 (antibody, V domains shown, IgG) VH: QVQLVQSGAEVKKPGSSVKVSCKASGGTLSNYAISWVRQAPGQGLEWMGGIIPIFGTAMYAHNFQDRVTFTADESTNTVYMAVSRLTSDDTAVYYCAQDRTVTKYAHGLDVWGQGTTVTVSS VL: DIQMTQSPSSLSASVGDRITITCPASQSLLTYLNWYQQKPGKAPKLLIYSASELPSGVPSRFSGSGSGTEFTLTVTGLQPDDFATYYCQQSHTTPLTFGGGTKVEIKR | 1.17

Challenge: For the binder M4B05 (antibody, V domains shown, IgG) VH: QVQLVQSGPEVRKPGASVIISCKASGYSFISYYIHWVRQAPGQGLEWMGIINPSGGSTEYAQKYQGRLTITRDTSTTTVSMTLSSLRSDDTAVYFCAREQAVGAYDIWGQGTMVTVSS VL: EIVLTQSPGTLSLSPGERATLSCRAGQLINGNYLAWYQKKPGQAPSLLIYDVSRRAAGVPDRFTGSGSGTDFTLTISRLEPDDFAVYYCQHYGRSPSPTFGGGTKVEIK , give its reported processed/unprocessed PreF trimer binding ratio.
Response given: 0.19

Challenge: For the binder M2B11 (antibody, V domains shown, IgG) VH: QVQLVQSGTEVKKPGASVKVSCKASGYTFTSHDINWLRQATGQGLEWLGWMNPNSATTGYAQKFQGRVTLTRDISISTAYMELSSLRSDDTAVYYCARNRHYYYADGPTRDAFDIWGQGTVVTVSS VL: SYELTQTPTVSVSPGQTASITCSGDELGHKYTSWYQQKPGQSPVLVVYQDTKRPSGIPERFSGSNSGNTATLTISGTQVMDEADYYCQAWDSGTVLLGGGTKLTVL , give its reported processed/unprocessed PreF trimer binding ratio.
Response given: 1.31
